Hello, the source for this data is patent US7528141B2, in case you need it.

# Tested on: KB cells
# assaySummary: Inhibition of cell growth, KB cells;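 note: KB nasopharyngeal carcinoma cells express the α-folate receptor, and leucovorin at 20 nM was the folate source in the growth medium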
# conditionSet: read-out: Inhibition of cell growth, IC50, KB + 1 μM FA; 20 nM LV, + 1 μM folic acid
quantity: IC50 (nM)
Report the figure in nM without appending any unit label.

# annotated cases, reported IC50 shown
{"columns": ["molecule", "assaySystem", "IC50, nM"],
 "data": [
  ["C#CCN(Cc1ccc2nc(C)[nH]c(=O)c2c1)c1ccc(C(=O)N[C@@H](CCC(=O)O)C(=O)O)cc1 [ICI 198583, reference compound]", "KB cells", 20],
  ["C#CCN(c1ccc(C(=O)N[C@@H](CCC(=O)N[C@H](CCC(=O)O)C(=O)O)C(=O)O)cc1)[C@H]1CCc2cc3nc(C)[nH]c(=O)c3cc21 [CB300638 (S)]", "KB cells", 390],
  ["C#CCN(Cc1cc2c(=O)[nH]c(C)nc2cc1C)c1ccc(C(=O)N[C@@H](CCC(=O)O)C(=O)O)cc1 [CB3900, reference compound]", "KB cells", 310],
  ["C#CCN(c1ccc(C(=O)N[C@@H](CCC(=O)N[C@H](CCC(=O)O)C(=O)O)C(=O)O)c(F)c1)C1CCc2cc3nc(C)[nH]c(=O)c3cc21 (mixture of isomers) [CB300947 (R, S)]", "KB cells", 580],
  ["Cc1nc2ccc(CN(C)c3ccc(C(=O)N[C@@H](CCC(=O)O)C(=O)O)s3)cc2c(=O)[nH]1 [Raltitrexed, reference compound]", "KB cells", 1.2],
  ["C#CCN(c1ccc(C(=O)N[C@@H](CCC(=O)N[C@H](CCC(=O)O)c2nnn[nH]2)C(=O)O)cc1)[C@H]1CCc2cc3nc(C)[nH]c(=O)c3cc21 [CB300907 (S)]", "KB cells", 490],
  ["C#CCN(c1ccc(C(=O)N[C@@H](CCC(=O)N[C@H](CCC(=O)O)C(=O)O)C(=O)O)cc1)[C@H]1CCc2cc3nc(CO)[nH]c(=O)c3cc21 [CB300945 (S)]", "KB cells", 4800]
]}

Here's the next entry for you.
Lookup: Given the entry C#CCN(c1ccc(C(=O)N[C@@H](CCC(=O)N(C)C(CCC(=O)O)C(=O)O)C(=O)O)cc1)C1CCc2cc3nc(C)[nH]c(=O)c3cc21 (mixture of isomers) [CB300899 (R, S)] , report its measured IC50.
Found: 2200

###

# System: A431-FBP cells
# assaySummary: Inhibition of cell growth, A431-FBP cells
# conditionSet: Homo sapiens, read-out: Inhibition of cell growth, IC50, A431-FBP
Measured pIC50 accompanies every entry in the list below.
To interpret pIC50, take it as minus log10 of a concentration measured in moles per litre.

# annotated cases, reported pIC50 shown
{"columns": ["compound", "pIC50"],
 "data": [
  ["C#CCN(c1ccc(C(=O)N[C@@H](CCC(=O)N[C@H](CCC(=O)O)C(=O)O)C(=O)O)cc1)[C@H]1CCc2cc3nc(CO)[nH]c(=O)c3cc21 [CB300945 (S)]", 8.82],
  ["C#CCN(Cc1ccc2nc(N)[nH]c(=O)c2c1)c1ccc(C(=O)N[C@@H](CCC(=O)O)C(=O)O)cc1 [CB3717, reference compound]", 6.59]
]}

Lookup: Param readout= pIC50; system= A431-FBP cells; entry= C#CCN(c1ccc(C(=O)N[C@@H](CCC(=O)N(C)C(CCC(=O)O)C(=O)O)C(=O)O)cc1)C1CCc2cc3nc(C)[nH]c(=O)c3cc21 (mixture of isomers) [CB300899 (R, S)] ; returns value.
Found: 9.04

###

# Tested on: A431-FBP cells
# assaySummary: Inhibition of cell growth, A431-FBP cells
# conditionSet: Homo sapiens, read-out: Inhibition of cell growth, IC50, A431-FBP
quantity: pIC50
To interpret pIC50, take it as minus log10 of a concentration measured in moles per litre.

{"columns": ["compound", "quantity", "recordedMeasurement"],
 "data": [
  ["C#CCN(c1ccc(C(=O)N[C@@H](CCC(=O)N[C@H](CCC(=O)O)C(=O)O)C(=O)O)c(F)c1)C1CCc2cc3nc(C)[nH]c(=O)c3cc21 (mixture of isomers) [CB300947 (R, S)]", "pIC50", 8.03],
  ["Cc1nc2ccc(CN(C)c3ccc(C(=O)N[C@@H](CCC(=O)O)C(=O)O)s3)cc2c(=O)[nH]1 [Raltitrexed, reference compound]", "pIC50", 9.10],
  ["C#CCN(c1ccc(C(=O)N[C@@H](CCC(=O)N[C@H](CCC(=O)O)C(=O)O)C(=O)O)cc1)C1CCc2cc3nc(CO)[nH]c(=O)c3cc21 (mixture of isomers) [CB300945 (R, S)]", "pIC50", 8.68],
  ["C#CCN(c1ccc(C(=O)N[C@@H](CCC(=O)N[C@H](CCC(=O)O)c2nnn[nH]2)C(=O)O)cc1)[C@H]1CCc2cc3nc(C)[nH]c(=O)c3cc21 [CB300907 (S)]", "pIC50", 8.59]
]}

Here's the next entry for you.
Lookup: Given the entry C#CCN(c1ccc(C(=O)N[C@@H](CCC(=O)N[C@H](CCC(=O)O)C(=O)O)C(=O)O)cc1)C1CCc2cc3nc(C)[nH]c(=O)c3cc21 (mixture of isomers) [CB300638 (R, S)] , report its measured pIC50.
Found: 8.19

###

Measured Inverse relative affinity for α-FR, L1210-FBP accompanies every entry in the list below.
# assaySystem: α-FR (Mus musculus)
# Construct: endogenous in cells; host or cells: mouse L1210-FBP cells
# Sequence (P35846 25-232): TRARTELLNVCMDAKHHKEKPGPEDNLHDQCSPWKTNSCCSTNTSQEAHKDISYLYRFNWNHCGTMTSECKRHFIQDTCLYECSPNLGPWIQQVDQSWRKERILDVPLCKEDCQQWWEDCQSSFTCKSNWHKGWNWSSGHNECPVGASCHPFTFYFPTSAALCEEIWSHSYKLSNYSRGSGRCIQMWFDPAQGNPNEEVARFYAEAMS
# assaySummary: Binding to α-FR relative to folic acid, L1210-FBP cells
# conditionSet: L1210-FBP mouse tumor cells overexpressing α-FR; folic acid = 1
Number only, no unit.

# annotated cases, reported Inverse relative affinity for α-FR, L1210-FBP shown
{"columns": ["molecule", "recordedMeasurement"],
 "data": [
  ["C#CCN(c1ccc(C(=O)N[C@@H](CCC(=O)N(C)C(CCC(=O)O)C(=O)O)C(=O)O)cc1)C1CCc2cc3nc(C)[nH]c(=O)c3cc21 (mixture of isomers) [CB300899 (R, S)]", 0.62],
  ["C#CCN(c1ccc(C(=O)N[C@@H](CCC(=O)N[C@H](CCC(=O)O)c2nnn[nH]2)C(=O)O)cc1)[C@H]1CCc2cc3nc(C)[nH]c(=O)c3cc21 [CB300907 (S)]", 0.61],
  ["C#CCN(c1ccc(C(=O)N[C@@H](CCC(=O)N[C@H](CCC(=O)O)C(=O)O)C(=O)O)cc1)[C@H]1CCc2cc3nc(C)[nH]c(=O)c3cc21 [CB300638 (S)]", 0.66],
  ["C#CCN(c1ccc(C(=O)N[C@@H](CCC(=O)N[C@H](CCC(=O)O)C(=O)O)C(=O)O)cc1)C1CCc2cc3nc(CO)[nH]c(=O)c3cc21 (mixture of isomers) [CB300945 (R, S)]", 0.73]
]}

Lookup: Given the entry C#CCN(c1ccc(C(=O)N[C@@H](CCC(=O)N[C@H](CCC(=O)O)C(=O)O)C(=O)O)cc1)[C@H]1CCc2cc3nc(CO)[nH]c(=O)c3cc21 [CB300945 (S)] , report its measured Inverse relative affinity for α-FR, L1210-FBP.
Found: 0.70

Lookup: Given the entry C#CCN(Cc1cc2c(=O)[nH]c(C)nc2cc1C)c1ccc(C(=O)N[C@@H](CCC(=O)O)C(=O)O)cc1 [CB3900, reference compound] , report its measured Inverse relative affinity for α-FR, L1210-FBP.
Found: 0.30

Lookup: Given the entry C#CCN(c1ccc(C(=O)N[C@@H](CCC(=O)N[C@H](CCC(=O)O)C(=O)O)C(=O)O)cc1)C1CCc2cc3nc(C)[nH]c(=O)c3cc21 (mixture of isomers) [CB300638 (R, S)] , report its measured Inverse relative affinity for α-FR, L1210-FBP.
Found: 0.60

Lookup: Given the entry C#CCN(c1ccc(C(=O)N[C@@H](CCC(=O)O)C(=O)O)cc1)C1CCc2cc3nc(CO)[nH]c(=O)c3cc21 (stereo partly drawn) [CB300959 (R, S), reference compound] , report its measured Inverse relative affinity for α-FR, L1210-FBP.
Found: 0.71

Lookup: Given the entry C#CCN(c1ccc(C(=O)N[C@@H](CCC(=O)N[C@H](CCC(=O)O)C(=O)O)C(=O)O)c(F)c1)C1CCc2cc3nc(C)[nH]c(=O)c3cc21 (mixture of isomers) [CB300947 (R, S)] , report its measured Inverse relative affinity for α-FR, L1210-FBP.
Found: 0.73

###

# assaySystem: thymidylate synthase (TS) from L1210 mouse leukaemia cells (Mus musculus, UniProt P07607)
# Construct: obtained in partially purified form from L1210 mouse leukaemia cells; endogenous in cells; host or cells: L1210 mouse leukaemia cells (enzyme partially purified)
# Sequence (P07607 whole entry): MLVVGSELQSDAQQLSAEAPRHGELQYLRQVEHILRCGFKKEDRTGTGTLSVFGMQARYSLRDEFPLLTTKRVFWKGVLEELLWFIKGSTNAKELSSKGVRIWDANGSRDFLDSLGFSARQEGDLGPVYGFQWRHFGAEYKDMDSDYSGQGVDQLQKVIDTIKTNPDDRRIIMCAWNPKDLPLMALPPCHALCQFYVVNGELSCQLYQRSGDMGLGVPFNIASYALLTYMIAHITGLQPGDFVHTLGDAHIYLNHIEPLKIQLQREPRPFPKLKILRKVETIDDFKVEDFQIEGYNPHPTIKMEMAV
# assaySummary: Inhibition of isolated L1210 thymidylate synthase
# Type: biochemical
# conditionSet: read-out: Inhibition of isolated L1210 TS, Kiapp
quantity: pKi
To interpret pKi, take it as minus log10 of a concentration measured in moles per litre.

# annotated cases, reported pKi shown
{"columns": ["molecule", "assaySystem", "pKi"],
 "data": [
  ["C#CCN(c1ccc(C(=O)N[C@@H](CCC(=O)N(C)C(CCC(=O)O)C(=O)O)C(=O)O)cc1)C1CCc2cc3nc(C)[nH]c(=O)c3cc21 (mixture of isomers) [CB300899 (R, S)]", "thymidylate synthase (TS) from L1210 mouse leukaemia cells (Mus musculus, UniProt P07607)", 9.11],
  ["Cc1nc2ccc(CN(C)c3ccc(C(=O)N[C@@H](CCC(=O)O)C(=O)O)s3)cc2c(=O)[nH]1 [Raltitrexed, reference compound]", "thymidylate synthase (TS) from L1210 mouse leukaemia cells (Mus musculus, UniProt P07607)", 6.29],
  ["C#CCN(c1ccc(C(=O)N[C@@H](CCC(=O)N[C@H](CCC(=O)O)C(=O)O)C(=O)O)cc1)[C@H]1CCc2cc3nc(C)[nH]c(=O)c3cc21 [CB300638 (S)]", "thymidylate synthase (TS) from L1210 mouse leukaemia cells (Mus musculus, UniProt P07607)", 9.48]
]}

Lookup: Given the entry C#CCN(c1ccc(C(=O)N[C@@H](CCC(=O)O)C(=O)O)cc1)C1CCc2cc3nc(CO)[nH]c(=O)c3cc21 (stereo partly drawn) [CB300959 (R, S), reference compound] , report its measured pKi.
Found: 7.92

Lookup: Given the entry C#CCN(c1ccc(C(=O)N[C@@H](CCC(=O)N[C@H](CCC(=O)O)C(=O)O)C(=O)O)cc1)C1CCc2cc3nc(C)[nH]c(=O)c3cc21 (mixture of isomers) [CB300638 (R, S)] , report its measured pKi.
Found: 9.38

Lookup: Given the entry C#CCN(Cc1cc2c(=O)[nH]c(C)nc2cc1C)c1ccc(C(=O)N[C@@H](CCC(=O)O)C(=O)O)cc1 [CB3900, reference compound] , report its measured pKi.
Found: 7.64
